Value source: BigSolDB 2.1

- MEASUREMENT SETUP: in MIBK, 303.35 K
PROPERTY LABEL: solubility (mole fraction)
Form field (numeric): enter value without unit.

Prompt: Recorded solubility (mole fraction) for CC1(C)[C@H](C(=O)O)N2C(=O)[C@@H](NC(=O)Cc3ccccc3)[C@H]2S1=O (stereo partly specified) , please?
Completion: 0.00227

---

- MEASUREMENT SETUP: in toluene, 316.85 K
PROPERTY LABEL: solubility (mole fraction)
Form field (numeric): enter value without unit.

Prompt: Recorded solubility (mole fraction) for CC1(C)[C@H](C(=O)O)N2C(=O)[C@@H](NC(=O)Cc3ccccc3)[C@H]2S1=O (stereo partly specified) , please?
Completion: 0.000105
